- TEST_SUMMARY: in vivo
- CONDITION_PARAMETERS: male, Sprague-Dawley, rat, iv
EXPERIMENTAL_ENDPOINT: half-life (h)

A = CCC[C@H](NC(=O)[C@@H]1[C@H]2CCC[C@H]2CN1C(=O)[C@@H](NC(=O)[C@@H](NC(=O)c1cnccn1)C1CCCCC1)C(C)(C)C)C(=O)C(=O)NC1CC1 [S isomer at C*]
B = CCC[C@@H](NC(=O)[C@@H]1[C@H]2CCC[C@H]2CN1C(=O)[C@@H](NC(=O)[C@@H](NC(=O)c1cnccn1)C1CCCCC1)C(C)(C)C)C(=O)C(=O)NC1CC1 [R isomer at C*]
Query: Which entry has a larger number for half-life, A or B ? Reply with the label of the item you choose.
Response: A
(A: 1.73 h, B: 0.75 h)

---

- TEST_SUMMARY: Oral bioavailability and isomer interconversion of R and S isomers at C* in rats
- Parameters: species or system male Sprague Dawley rats
- CONDITION_PARAMETERS: male, Sprague Dawley, rat, in vivo, 30 mg/kg
- Method: Three groups of male Sprague Dawley rats (n=6-7/group) were orally administered a compound of formula I wherein the mixture comprised about 92% R isomer at position C* and about 8% S isomer at position C*; a mixture that was about 7% R isomer at position C* and about 93% S isomer at position C*; or a compound of formula I wherein the mixture was about 54% R isomer at position C* and about 46% S isomer at position C*; at a nominal dose of 30 mg/kg. […]
EXPERIMENTAL_ENDPOINT: bioavailability (%)

1 = CCC[C@H](NC(=O)[C@@H]1[C@H]2CCC[C@H]2CN1C(=O)[C@@H](NC(=O)[C@@H](NC(=O)c1cnccn1)C1CCCCC1)C(C)(C)C)C(=O)C(=O)NC1CC1 [S isomer at C*]
2 = CCC[C@@H](NC(=O)[C@@H]1[C@H]2CCC[C@H]2CN1C(=O)[C@@H](NC(=O)[C@@H](NC(=O)c1cnccn1)C1CCCCC1)C(C)(C)C)C(=O)C(=O)NC1CC1 [R isomer at C*]
Query: Which entry has a larger number for bioavailability, 1 or 2 ? Reply with the label of the item you choose.
Response: 2
(2: 80.6%, 1: 42.9%)
